Target: HLA-A*02:01
Assay: IEDB peptide-MHC binding, purified MHC/competitive/fluorescence; bounds were set here for any values at or beyond the usual limits of such assays
Settings: source organism: Sudan ebolavirus
readout.type: pIC50
pIC50 field: float, defined as -log10 of concentration (mol/L).

Please review the entries below; each comes with its answer.
# sequence.input, pIC50
records = [
    ("ATGKCNPNL", 4.91),
    ("QLSNTTGRL", 5.33),
    ("FLLRRWGGT", 5.70),
]

Next sequence, pIC50 to be filled in.
Input line: For the sequence RGVNFAEGV , what pIC50 is on record?
Output line: 4.48

###

Target: HLA-C*06:02
Assay: IEDB peptide-MHC binding, purified MHC/direct/fluorescence; filed as Kd, often an IC50 or EC50 that approximates it; bounds were set here for any values at or beyond the usual limits of such assays
Settings: source organism: Homo sapiens
readout.type: Kd

Input line: For the sequence MPMKGRFPI , what Kd is on record?
Output line: ≥ 20 µM

###

Molecular target: HLA-A*02:03
Assay: IEDB peptide-MHC binding, purified MHC/direct/fluorescence; filed as Kd, often an IC50 or EC50 that approximates it; bounds were set here for any values at or beyond the usual limits of such assays
Details: source organism: Choclo virus
pKd: −log10 of the molar value.
readout.type: pKd

Input line: Kindly state the measured pKd obtained for LPSSSSYSY with HLA-A*02:03.
Output line: ≤ 4.70

###

Target: HLA-A*69:01
Experiment: IEDB peptide-MHC binding, purified MHC/direct/fluorescence; filed as Kd, often an IC50 or EC50 that approximates it; bounds were set here for any values at or beyond the usual limits of such assays
Conditions: source organism: Marburg virus - Musoke, Kenya, 1980
readout.type: Kd (µM)
Numbers only here, please. The scale is µM.

Input line: For the sequence ALKEAIEMV , what Kd is on record?
Output line: 1.8

###

Target: HLA-B*15:09
Test: IEDB peptide-MHC binding, purified MHC/direct/fluorescence; filed as Kd, often an IC50 or EC50 that approximates it; bounds were set here for any values at or beyond the usual limits of such assays
Conditions: source organism: Escherichia coli O157:H7 str. EC869
readout.type: pKd
pKd field: float, defined as -log10 of concentration (mol/L).

Input line: Kindly state the measured pKd obtained for HHSLTHHQL with HLA-B*15:09.
Output line: 8.70

###

Molecular target: HLA-B*51:01
Assay: IEDB peptide-MHC binding, purified MHC/direct/fluorescence; filed as Kd, often an IC50 or EC50 that approximates it; bounds were set here for any values at or beyond the usual limits of such assays
Conditions: source organism: Yersinia pestis CA88-4125
readout.type: Kd

Input line: Kindly state the measured Kd obtained for KLLARFLFE with HLA-B*51:01.
Output line: ≥ 20 µM

###

Biological target: HLA-B*44:02
Assay: IEDB peptide-MHC binding, purified MHC/competitive/radioactivity; filed as Kd, often an IC50 or EC50 that approximates it; bounds were set here for any values at or beyond the usual limits of such assays
Conditions: source organism: SARS coronavirus Tor2
// values below are reported Kd
Numbers only here, please. The scale is nM.

# sequence.input, readout.type, output.unit, numeric.value
rows = [
    ("SAFFGMSRIG", "Kd", "nM", 18400),
    ("KEFTRPLISG", "Kd", "nM", 10100),
    ("QELGHEDLMA", "Kd", "nM", 4150),
]

Input line: For the sequence GEILLLEWL , what Kd is on record?
Output line: 9.44

Input line: For the sequence GECPKFVFPL , what Kd is on record?
Output line: 952

Input line: For the sequence DEWSVATFY , what Kd is on record?
Output line: 316

Input line: For the sequence NELTLIDFYL , what Kd is on record?
Output line: 157

Input line: For the sequence IEELFYSYAT , what Kd is on record?
Output line: 326

Input line: For the sequence SEEVVENPTI , what Kd is on record?
Output line: 471

Input line: For the sequence QELGKYEQYI , what Kd is on record?
Output line: 207

Input line: For the sequence VDYGVRFFFY , what Kd is on record?
Output line: 823

Input line: For the sequence REIGFIVPGL , what Kd is on record?
Output line: 14.3

###

Target: HLA-A*02:19
Test: IEDB peptide-MHC binding, purified MHC/direct/fluorescence; filed as Kd, often an IC50 or EC50 that approximates it; bounds were set here for any values at or beyond the usual limits of such assays
Settings: source organism: Orthohantavirus andesense
pKd: −log10 of the molar value.
// values below are reported pKd

# sequence.input, assay.target, result
data = [
    ("NALEKALRW", "HLA-A*02:19", "≤ 4.70"),
]

Input line: For the sequence VSANVKGNW , what pKd is on record?
Output line: ≤ 4.70

###

Biological target: HLA-A*03:01
Experiment: IEDB peptide-MHC binding, purified MHC/direct/fluorescence; filed as Kd, often an IC50 or EC50 that approximates it; bounds were set here for any values at or beyond the usual limits of such assays
Details: source organism: Sudan ebolavirus - Maleo (1979)
readout.type: Kd (nM)
Numbers only here, please. The scale is nM.

Input line: For the sequence GIVSSMHYK , what Kd is on record?
Output line: 1380

###

Molecular target: HLA-A*02:11
Assay: IEDB peptide-MHC binding, purified MHC/competitive/fluorescence; filed as Kd, often an IC50 or EC50 that approximates it; bounds were set here for any values at or beyond the usual limits of such assays
Conditions: source organism: Mycobacterium tuberculosis C
readout.type: Kd (µM)
Numbers only here, please. The scale is µM.

Input line: For the sequence SLVAIHLAC , what Kd is on record?
Output line: 0.443

###

Target: HLA-A*02:01
Test: IEDB peptide-MHC binding, purified MHC/competitive/fluorescence; filed as Kd, often an IC50 or EC50 that approximates it; bounds were set here for any values at or beyond the usual limits of such assays
Conditions: source organism: Vaccinia virus GLV-1h68
readout.type: pKd
pKd field: float, defined as -log10 of concentration (mol/L).

Input line: For the sequence LMYDIINSV , what pKd is on record?
Output line: 9.22

###

Target: HLA-A*33:01
Assay: IEDB peptide-MHC binding, purified MHC/competitive/radioactivity; filed as Kd, often an IC50 or EC50 that approximates it; bounds were set here for any values at or beyond the usual limits of such assays
Conditions: source organism: Mammarenavirus whitewaterense
pKd: −log10 of the molar value.
readout.type: pKd

Input line: For the sequence SLLTNDTTWI , what pKd is on record?
Output line: ≤ 4.15

###

Target: HLA-B*40:01
Test: IEDB peptide-MHC binding, purified MHC/competitive/fluorescence; filed as Kd, often an IC50 or EC50 that approximates it; bounds were set here for any values at or beyond the usual limits of such assays
Details: source organism: Salmonella enterica subsp. enterica serovar Typhi
readout.type: Kd (µM)
Numbers only here, please. The scale is µM.

Input line: For the sequence AETLMAQPF , what Kd is on record?
Output line: 0.0122

###

Biological target: HLA-C*15:02
Test: IEDB peptide-MHC binding, purified MHC/direct/fluorescence; filed as Kd, often an IC50 or EC50 that approximates it; bounds were set here for any values at or beyond the usual limits of such assays
Conditions: source organism: Bacillus anthracis str. A2012
readout.type: pKd
pKd field: float, defined as -log10 of concentration (mol/L).

Input line: Kindly state the measured pKd obtained for RAFSLYMTL with HLA-C*15:02.
Output line: 6.33

###

Molecular target: HLA-B*18:01
Assay: IEDB peptide-MHC binding, purified MHC/competitive/radioactivity; filed as Kd, often an IC50 or EC50 that approximates it; bounds were set here for any values at or beyond the usual limits of such assays
Details: source organism: Lassa virus Josiah
pKd: −log10 of the molar value.
readout.type: pKd

Input line: For the sequence AEAQMSIQL , what pKd is on record?
Output line: ≤ 4.63

###

Molecular target: HLA-A*02:11
Assay: IEDB peptide-MHC binding, purified MHC/direct/fluorescence; filed as Kd, often an IC50 or EC50 that approximates it; bounds were set here for any values at or beyond the usual limits of such assays
Details: source organism: Orthohantavirus andesense
pKd: −log10 of the molar value.
readout.type: pKd

# sequence.input, readout.type, result
records = [
    ("VSANVKGNW", "pKd", "≤ 4.70"),
]

Next sequence, pKd to be filled in.
Input line: Kindly state the measured pKd obtained for NALEKALRW with HLA-A*02:11.
Output line: ≤ 4.70

###

Target: HLA-A*26:01
Assay: IEDB peptide-MHC binding, purified MHC/competitive/radioactivity; filed as Kd, often an IC50 or EC50 that approximates it; bounds were set here for any values at or beyond the usual limits of such assays
Settings: source organism: Dengue virus 1 Brazil/97-11/1997
readout.type: pKd
pKd field: float, defined as -log10 of concentration (mol/L).

# sequence.input, readout.type, numeric.value
data = [
    ("MVTLYLGVM", "pKd", 6.79),
]

Input line: For the sequence EISSMLNIM , what pKd is on record?
Output line: 6.18
